All values here come from patent US20200095340A1.

Target: biotinylated human DLL3 protein expressed as a human IgG1 fusion protein (human) (UniProt Q9NYJ7)
Sequence (Q9NYJ7 27-492): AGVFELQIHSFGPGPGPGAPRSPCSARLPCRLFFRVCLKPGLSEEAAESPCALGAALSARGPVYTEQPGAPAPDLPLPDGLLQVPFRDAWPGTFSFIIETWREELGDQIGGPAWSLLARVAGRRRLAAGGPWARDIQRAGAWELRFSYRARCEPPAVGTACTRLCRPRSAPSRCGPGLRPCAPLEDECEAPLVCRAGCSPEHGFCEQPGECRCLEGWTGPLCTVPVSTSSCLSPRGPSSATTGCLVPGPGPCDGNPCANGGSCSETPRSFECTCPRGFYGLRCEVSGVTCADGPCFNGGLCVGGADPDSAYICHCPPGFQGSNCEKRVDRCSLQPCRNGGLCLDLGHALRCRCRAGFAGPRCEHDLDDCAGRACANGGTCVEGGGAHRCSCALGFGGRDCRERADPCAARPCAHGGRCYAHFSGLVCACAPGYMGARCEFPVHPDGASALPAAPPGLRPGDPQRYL
Assay: Octet, biotinylated human DLL3-IgG1 fusion on streptavidin tips, single 50 nM, conditioned medium (relative KD)
Readout kind: Kd (nM)
One number for each entry, in nM.

Solved cases below.
Binder	Units label	Kd
anti-DLL3 trispecific protein, DLL3 binder 4G03 (protein, part only; not given: CD3 binder and albumin binder, part only) chain, part: EVQLVESGGGLVQPGGSLTLSCAASGSSVKFLSMAWYRQAPGKKRELVAGISADGSTDYIHSVKGRFTISRDNAKNSVYLQMNSLRAEDTAVYYCYAYRWTRRYTYWGQGTLVTVSSGGGGSGGGSGGGGSGGGSHHHHHH	nM	20
anti-DLL3 trispecific protein, DLL3 binder 1B02 (protein, part only; not given: anti-CD3 fragment and anti-albumin sdAb, part only) chain, part: EVQLVESGGGLVQPGGSLTLSCVASGSTSSINAMGWYRRAPGKQRELVAGISSDGSKIYADSVKGRFTISRDNAKNSVYLQMNSLRAEDTAVYYCYYFRTVSGSSMRYWGQGTLVTVSSGGGGSGGGSGGGGSGGGSHHHHHH	nM	11

Record Kd per entry; entries follow.
1. anti-DLL3 trispecific protein, DLL3 binder 3G07 (protein, part only; not given: anti-CD3 fragment and anti-albumin sdAb, part only) chain, part: EVQLVESGGGLVQPGGSLTLSCAASGSSVSFLSMAWYRQAPGKKRELVAGISRDGSTDYIDSVKGRFTISRDNAKNSVYLQMNSLRAEDTAVYYCYAYRWTSRYTYWGQGTLVTVSSGGGGSGGGSGGGGSGGGSHHHHHH
2. anti-DLL3 trispecific protein, DLL3 binder 3D010 (protein, part only; not given: CD3 binder and albumin binder, part only) chain, part: EVQLVESGGGLVQPGGSLTLSCAASGSSKSFLSMAWYRQAPGKKRELVAGISADGSTSYIDSVKGRFTISRDNAKNSVYLQMNSLRAEDTAVYYCYAYRWTTRYTYWGQGTLVTVSSGGGGSGGGSGGGGSGGGSHHHHHH

1: 13; 2: 14

I'd like to know its Kd. The binder in question is anti-DLL3 trispecific protein, DLL3 binder 2C01 (protein, part only; not given: anti-CD3 fragment and anti-albumin sdAb, part only) chain, part: EVQLVESGGGLVQPGGSLTLSCVASGSTASINAMGWYRRAPGKQRELVAGISSDGSKVYADSVKGRFTISRDNAKNSVYLQMNSLRAEDTAVYYCYYFRYVSGSSMRYWGQGTLVTVSSGGGGSGGGSGGGGSGGGSHHHHHH
12
